test system: anaesthetized dog; assay: Antiangorous activity on anaesthetized dog: consumption of oxygen in the left ventricule and cardiac effort (KATZ's index); format: in vivo; settings: 1.25 mg/kg i.v. slow perfusion
Reported Diminution in the cardiac effort (IK): in time values are given for each entry in this list.
Numeric answer only, unit min assumed.

The cases that follow already have their Diminution in the cardiac effort (IK): in time on record.
• COc1cc(/C=C/C(=O)N2CCN(CC(O)COc3ccc(C(C)=O)c4ccccc34)CC2)cc(OC)c1OC (stereo not shown) [771 315] = 15
• COc1cc(/C=C/C(=O)N2CCN(CC(O)COc3ccc(OC(C)=O)c4c3OCCO4)CC2)cc(OC)c1OC (stereo not shown) [780 004] = 15
• CNC(=O)N(C)c1ccc(OCC(O)CN2CCN(C(=O)/C=C/c3cc(OC)c(OC)c(OC)c3)CC2)c2c1OCCO2 (stereo not shown) [771 238] = 30

Enquiry: Any idea what Diminution in the cardiac effort (IK): in time was measured for COc1cc(/C=C/C(=O)N2CCN(CC(O)COc3ccc(C(=O)NC4CCCCC4)c4c3OCCO4)CC2)cc(OC)c1OC (stereo not shown) [770 831] ?
Return: 45

Enquiry: Any idea what Diminution in the cardiac effort (IK): in time was measured for COc1cc(/C=C/C(=O)N2CCN(CCCOc3ccc(C(C)=O)c4c3OCCO4)CC2)cc(OC)c1OC [760 939] ?
Return: 23

Enquiry: Any idea what Diminution in the cardiac effort (IK): in time was measured for COc1cc(/C=C/C(=O)N2CCCN(CC(O)COc3ccc(C(C)=O)c4c3OCCO4)CC2)cc(OC)c1OC (stereo not shown) [760 622] ?
Return: 15

Enquiry: Any idea what Diminution in the cardiac effort (IK): in time was measured for COc1cc(/C=C/C(=O)N2CCN(CC(O)COc3ccc(CO)c4c3OCCO4)CC2)cc(OC)c1OC (stereo not shown) [760 705] ?
Return: 75

* * *

Reported inhibition in vivo at 2.3 mg/kg values are given for each entry in this list.
system: anaesthetized dog; assay: Antiangorous activity on anaesthetized dog: consumption of oxygen in the left ventricule and cardiac effort (KATZ's index); format: in vivo; conditions: Canis lupus familiaris, iv, 2.3 mg/kg i.v. slow perfusion, read-out: Diminution in consumption of O2
Numeric answer only, unit % assumed.

The cases that follow already have their inhibition in vivo at 2.3 mg/kg on record.
• COc1cc(/C=C/C(=O)N2CCN(CC(O)COc3ccccc3Cl)CC2)cc(OC)c1OC (stereo not shown) = 45
• COc1cc(/C=C/C(=O)N2CCN(CC(O)COc3cccc(C#N)c3)CC2)cc(OC)c1OC (stereo not shown) = 44
• COc1cc(/C=C/C(=O)N2CCN(CC(O)COc3ccc(Cl)cc3)CC2)cc(OC)c1OC (stereo not shown) = 70

Enquiry: Any idea what inhibition in vivo at 2.3 mg/kg was measured for COc1cc(/C=C/C(=O)N2CCN(CC(O)COc3c(OC)cccc3OC)CC2)cc(OC)c1OC (stereo not shown) ?
Return: 19

* * *

Reported mortality values are given for each entry in this list.
experiment: in vivo; conditions: iv, 400 mg/kg i.v., read-out: Toxicity (Mortality)
Numeric answer only, unit % assumed.

The cases that follow already have their mortality on record.
- CNC(=O)Nc1ccc(OCC(O)CN2CCN(C(=O)/C=C/c3cc(OC)c(OC)c(OC)c3)CC2)c(OC)c1OC (stereo not shown): 0
- CNC(=O)Cc1ccc(OCC(O)CN2CCN(C(=O)/C=C/c3cc(OC)c(OC)c(OC)c3)CC2)c2c1OCCO2 (stereo not shown): 30
- COc1cc(/C=C/C(=O)N2CCCN(CC(O)COc3ccc(C(C)=O)c4c3OCCO4)CC2)cc(OC)c1OC (stereo not shown): 40
- CNC(=O)N(C)c1ccc(OCC(O)CN2CCN(C(=O)/C=C/c3cc(OC)c(OC)c(OC)c3)CC2)c2c1OCCO2 (stereo not shown): 0
- COc1cc(/C=C/C(=O)N2CCN(CC(O)COc3ccc(NC(C)=O)c4c3CCCC4)CC2)cc(OC)c1OC (stereo not shown): 10

Enquiry: Any idea what mortality was measured for COc1cc(/C=C/C(=O)N2CCN(CC(O)COc3ccc(CO)c4c3OCCO4)CC2)cc(OC)c1OC (stereo not shown) ?
Return: 20

Enquiry: Any idea what mortality was measured for COc1cc(/C=C/C(=O)N2CCN(CC(O)COc3ccc(CC(N)=O)c4c3OCCO4)CC2)cc(OC)c1OC (stereo not shown) ?
Return: 20
